target: organic anion transporting polypeptide 1B1 (OATP1B1) (Homo sapiens (Human)); assay: OATP assay in CHO-OATP1B1 cells;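 further: inhibition of probe substrate uptake into the cells, ten minutes exposure, accumulated substrate read by fluorescence once cells were lysed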
Sequence (Q9Y6L6 whole entry): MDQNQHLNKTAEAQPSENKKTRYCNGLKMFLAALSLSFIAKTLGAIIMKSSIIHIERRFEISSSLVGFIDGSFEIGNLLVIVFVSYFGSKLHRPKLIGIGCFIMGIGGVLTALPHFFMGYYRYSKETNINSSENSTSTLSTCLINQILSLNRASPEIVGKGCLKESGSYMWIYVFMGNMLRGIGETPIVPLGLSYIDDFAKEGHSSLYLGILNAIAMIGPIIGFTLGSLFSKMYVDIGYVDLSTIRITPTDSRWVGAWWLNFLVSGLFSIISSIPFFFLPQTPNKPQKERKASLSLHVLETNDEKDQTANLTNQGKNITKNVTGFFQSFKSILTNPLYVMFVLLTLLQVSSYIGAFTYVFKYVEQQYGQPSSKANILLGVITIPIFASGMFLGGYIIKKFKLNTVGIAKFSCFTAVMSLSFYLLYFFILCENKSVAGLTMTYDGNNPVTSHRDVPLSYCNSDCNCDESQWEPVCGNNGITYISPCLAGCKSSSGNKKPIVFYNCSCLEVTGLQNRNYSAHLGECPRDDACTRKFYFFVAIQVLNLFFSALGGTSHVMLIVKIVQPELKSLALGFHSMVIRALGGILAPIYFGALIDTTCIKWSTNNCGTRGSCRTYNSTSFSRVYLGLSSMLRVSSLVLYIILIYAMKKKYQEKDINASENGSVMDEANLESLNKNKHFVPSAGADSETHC
Starred links: 1 amine or outer side, 2 acyl side, 3 side chain; linkers in the order of their positions; H or OH if unused. Non-standard residues stand in square brackets, D forms with d. Residues, ends and D or L forms follow the SMILES beside them. X63 = C[C@H](CN1CCN(C2COC2)CC1)[C@@H](C(=O)[*:2])N(C)[*:1]; X40 = C[C@H](COCC(=O)N1CCNCC1)[C@@H](C(=O)[*:2])N(C)[*:1]; MeBmt = C/C=C/C[C@@H](C)[C@@H](O)[C@H](NC)C(=O)O; NMeL = CN[C@@H](CC(C)C)C(=O)O; NMeV = CN[C@H](C(=O)O)C(C)C; dNMeA = CN[C@H](C)C(=O)O; Abu = CC[C@H](N)C(=O)O
Recorded IC50, one value per entry.
Output spec: scalar in µM, unitless text.

{"columns": ["COMPOUND", "IC50 [µM]"],
 "data": [
  ["C/C=C/C[C@@H](C)[C@@H](O)[C@H]1C(=O)N[C@@H](CC)C(=O)N(C)[C@H](C)C(=O)N(C)[C@@H]([C@H](C)COCC(=O)N2CCNCC2)C(=O)N[C@@H](C(C)C)C(=O)N(C)[C@@H](CC(C)C)C(=O)N[C@@H](C)C(=O)N[C@H](C)C(=O)N(C)[C@@H](CC(C)C)C(=O)N(C)[C@@H](CC(C)C)C(=O)N(C)[C@@H](C(C)C)C(=O)N1C [Compound 2.6.1] (cyclo(A[dA][NMeL][NMeL][NMeV][MeBmt][Abu][dNMeA][X40]V[NMeL]))", 6.9]
]}

With those in mind, consider the next compound.
The value of IC50 measured for the compound C/C=C/C[C@@H](C)[C@@H](O)[C@H]1C(=O)N[C@@H](CC)C(=O)N(C)[C@H](C)C(=O)N(C)[C@@H]([C@H](C)CN2CCN(C3COC3)CC2)C(=O)N[C@@H](C(C)C)C(=O)N(C)[C@@H](CC(C)C)C(=O)N[C@@H](C)C(=O)N[C@H](C)C(=O)N(C)[C@@H](CC(C)C)C(=O)N(C)[C@@H](CC(C)C)C(=O)N(C)[C@@H](C(C)C)C(=O)N1C [Compound 2.5.11] (cyclo(A[dA][NMeL][NMeL][NMeV][MeBmt][Abu][dNMeA][X63]V[NMeL])) turned out to be 1.17
